Biological target: Matrix metalloproteinase-14 (Homo sapiens)
Assay: Inhibition of MMP14
pIC50: −log10 of the molar value.
Reported pIC50 values are given for each entry in this list.
property: pIC50

smiles-string: CC(C)[C@H](C(=O)NO)N(CC(=O)NCCc1ccc(S(N)(=O)=O)cc1)S(=O)(=O)c1ccc(Oc2ccccc2)cc1
property: pIC50
censoring-qualifier: =
recorded-number: 9.49

smiles-string: CC(C)[C@H](C(=O)NO)N(CC(=O)O)S(=O)(=O)c1ccc(Oc2ccccc2)cc1
property: pIC50
censoring-qualifier: =
recorded-number: 8.41

smiles-string: NS(=O)(=O)c1ccc(CCNC(=O)CN(CC(=O)O)S(=O)(=O)c2ccc(Oc3ccccc3)cc2)cc1
property: pIC50
censoring-qualifier: =
recorded-number: 5.05

smiles-string: CC(C)[C@H](C(=O)NO)N(CC(=O)O)S(=O)(=O)c1ccc(-c2ccccc2)cc1
property: pIC50
censoring-qualifier: =
recorded-number: 6.51

smiles-string: NS(=O)(=O)c1ccc(CCNC(=O)CN(CC(=O)O)S(=O)(=O)c2ccc(-c3ccccc3)cc2)cc1
property: pIC50
censoring-qualifier: =
recorded-number: 4.47

smiles-string: NS(=O)(=O)c1ccc(CCNC(=O)CN(CC(=O)NO)Cc2ccccc2)cc1
property: pIC50
censoring-qualifier: <
recorded-number: 4.00

* * *

Target: Collagenase 3 (Homo sapiens, UniProt P45452)

smiles-string: CC(C)[C@H](C(=O)NO)N(CC(=O)O)S(=O)(=O)c1ccc(Oc2ccccc2)cc1
target-desc: Collagenase 3 (Homo sapiens, UniProt P45452)
IC50: 0.33 nM

* * *

Target: Neutrophil collagenase (Homo sapiens)
Sequence (P22894 whole entry): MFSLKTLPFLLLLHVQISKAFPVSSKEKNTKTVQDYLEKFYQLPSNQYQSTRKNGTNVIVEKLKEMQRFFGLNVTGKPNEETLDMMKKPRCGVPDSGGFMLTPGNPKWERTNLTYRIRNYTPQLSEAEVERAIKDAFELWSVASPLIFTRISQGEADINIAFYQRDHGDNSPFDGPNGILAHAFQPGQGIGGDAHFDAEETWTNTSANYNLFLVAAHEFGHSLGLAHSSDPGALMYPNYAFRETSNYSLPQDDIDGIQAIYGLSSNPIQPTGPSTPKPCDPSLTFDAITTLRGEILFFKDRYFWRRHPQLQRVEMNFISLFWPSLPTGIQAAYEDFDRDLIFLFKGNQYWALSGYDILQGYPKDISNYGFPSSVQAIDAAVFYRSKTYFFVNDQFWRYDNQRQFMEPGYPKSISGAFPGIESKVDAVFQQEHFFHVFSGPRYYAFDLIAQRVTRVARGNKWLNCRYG
Test: Inhibition of MMP8
Reported IC50 values are given for each entry in this list.

smiles-string: COc1ccc(S(=O)(=O)N(CC(=O)NO)CC(=O)NCCc2ccc(S(N)(=O)=O)cc2)cc1
target-desc: Neutrophil collagenase (Homo sapiens)
IC50 / nM: 59

smiles-string: NS(=O)(=O)c1ccc(CCNC(=O)CN(CC(=O)NO)S(=O)(=O)c2ccc(Oc3ccccc3)cc2)cc1
target-desc: Neutrophil collagenase (Homo sapiens)
IC50 / nM: 0.74

smiles-string: NS(=O)(=O)c1ccc(CCNC(=O)CN(CC(=O)O)S(=O)(=O)c2ccc(Oc3ccccc3)cc2)cc1
target-desc: Neutrophil collagenase (Homo sapiens)
IC50 / nM: 4360

smiles-string: NS(=O)(=O)c1ccc(CCNC(=O)CN(CC(=O)NO)S(=O)(=O)c2ccc(-c3ccccc3)cc2)cc1
target-desc: Neutrophil collagenase (Homo sapiens)
IC50 / nM: 35

smiles-string: COc1ccc(S(=O)(=O)N(CC(=O)O)[C@@H](C(=O)NO)C(C)C)cc1
target-desc: Neutrophil collagenase (Homo sapiens)
IC50 / nM: 29.2

smiles-string: CC(C)[C@H](C(=O)NO)N(CC(=O)O)S(=O)(=O)c1ccc(-c2ccccc2)cc1
target-desc: Neutrophil collagenase (Homo sapiens)
IC50 / nM: 4.3

smiles-string: CC(C)[C@H](C(=O)NO)N(CC(=O)O)S(=O)(=O)c1ccc(Oc2ccccc2)cc1
target-desc: Neutrophil collagenase (Homo sapiens)
IC50 / nM: 0.4

smiles-string: O=C(O)CN(CC(=O)NO)S(=O)(=O)c1ccc(Oc2ccccc2)cc1
target-desc: Neutrophil collagenase (Homo sapiens)
IC50 / nM: 3.7

smiles-string: CC(C)[C@H](C(=O)NO)N(CC(=O)NCCc1ccc(S(N)(=O)=O)cc1)S(=O)(=O)c1ccc(Oc2ccccc2)cc1
target-desc: Neutrophil collagenase (Homo sapiens)
IC50 / nM: 0.29

smiles-string: NS(=O)(=O)c1ccc(CCNC(=O)CN(CC(=O)O)S(=O)(=O)c2ccc(-c3ccccc3)cc2)cc1
target-desc: Neutrophil collagenase (Homo sapiens)
IC50 / nM: 8200

smiles-string: COc1ccc(S(=O)(=O)N(CC(=O)O)CC(=O)NO)cc1
target-desc: Neutrophil collagenase (Homo sapiens)
IC50 / nM: 1010
